Attribute: inhibition at 100 µM
- Measurement target: prostaglandin G/H synthase-1 (Ovis aries, UniProt P05979)
- Construct: purified from ram seminal vesicles; from tissue; host or cells: ram seminal vesicles
- Sequence (P05979 25-600): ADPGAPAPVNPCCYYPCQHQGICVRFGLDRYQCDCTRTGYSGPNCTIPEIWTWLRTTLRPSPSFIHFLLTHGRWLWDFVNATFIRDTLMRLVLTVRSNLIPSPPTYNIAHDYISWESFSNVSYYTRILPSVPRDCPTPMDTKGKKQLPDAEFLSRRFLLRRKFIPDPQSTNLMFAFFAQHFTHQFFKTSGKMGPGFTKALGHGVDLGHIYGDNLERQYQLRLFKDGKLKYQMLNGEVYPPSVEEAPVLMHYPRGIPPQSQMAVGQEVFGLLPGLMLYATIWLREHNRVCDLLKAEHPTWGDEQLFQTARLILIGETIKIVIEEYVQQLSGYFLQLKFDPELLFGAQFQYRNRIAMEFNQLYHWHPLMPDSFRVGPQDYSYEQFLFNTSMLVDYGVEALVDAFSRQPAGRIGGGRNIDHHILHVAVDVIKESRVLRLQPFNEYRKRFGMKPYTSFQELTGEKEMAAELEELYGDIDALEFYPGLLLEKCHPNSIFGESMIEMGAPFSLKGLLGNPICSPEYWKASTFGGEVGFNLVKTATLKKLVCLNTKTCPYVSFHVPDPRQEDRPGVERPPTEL
- Measurement protocol: Inhibition of prostaglandin G/H synthase-1 (conversion of [14C]arachidonic acid to products)
- Assay type: biochemical
- Experimental context: pH 7.4, 100 μM; enzyme purified from ram seminal vesicles; 15 min preincubation, pH 7.4, room temperature; read-out: % Inhibition of PGHS-1 at 100 μM
Numbers only; they are read as %.

Returns the measured inhibition at 100 µM for the input compound. Input: COC(=O)CSC1c2ccccc2-c2ccccc21 [Example 10, Methyl (9-fluorenylthio)acetate]
18

Next compound: COC(=O)CSC(c1ccc(OC)cc1)(c1ccc(OC)cc1)c1ccc(OC)cc1 [Example 12]
32

Next compound: COC(=O)CSC(c1ccccc1)(c1ccccc1)c1ccccc1 [Example 11, Methyl [(triphenylmethyl)thio]acetate]
10

Next compound: COC(=O)CSC(c1ccc(N(C)C)cc1)c1ccc(N(C)C)cc1 [Example 4]
68
